Entries and their pEC50
Tested on: VZV in MeWo or MRC5 cells
testDetails: Viral qPCR assay VZV (V0/V1, V2/V3), EC50
Type: cell-based
particulars: Human alphaherpesvirus 3, MeWo, MEWO cells, 10%; read-out: VZV Cell (EC50) MEWO 10%
# pEC50 is unitless: minus log10 of the molar concentration; print number only

Check out these entries, answers already filled in.
compound: N#Cc1cnc(C(=O)NCc2ccc(Cl)cc2)cc1O[C@H]1CCN2C(=O)CC[C@@H]2C1 (racemic)
pEC50: 6.24
//
compound: CC(=O)N1CCC(Oc2cc(C(=O)NCc3ccc(Cl)cc3)ncc2-c2cnn(CCO)c2)CC1
pEC50: 6.79
//
compound: N#Cc1ccc(CNC(=O)c2cc(O[C@H]3CCN4C(=O)OC[C@@H]4C3)c(-c3cnn(C(F)F)c3)cn2)cc1
pEC50: 6.58
//
compound: Cn1cnc(-c2cnc(C(=O)NCc3ccc(Cl)cc3)cc2O[C@H]2CCN3C(=O)OC[C@@H]3C2)c1
pEC50: 7.27

Here is another compound to look at.
Find the measured pEC50 of O=C(NCc1ccc(Cl)cc1)c1cc(O[C@H]2CCN3C(=O)OC[C@@H]3C2)c(-c2cnn(C3CC3)c2)cn1 and report it.
6.98
